Where these numbers come from: PubChem BioAssay (EPA / NIEHS)

protocolSummary: TOX21_p53_BLA_p3_viability: Viability Assessment in the Tox21 HCT-116 p53 Agonism Beta-lactamase Assay, Phase 3 (AID 2283593);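 further: cells exposed to compound for 16 h before reading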
Results filed as inconclusive are left out. The source made the active and inactive calls. How the source made its calls: active means hit-call score of the fitted dose curve at least 0.9, where 1 is the maximum; inconclusive means response in the unintended direction; inactive means score below 0.9.
observedProperty: outcome

Some molecules with known outcome results, for comparison:
NC(=Nc1ccccc1)Nc1ccccc1; inactive
O=C(O)c1[nH]n(-c2ccc(S(=O)(=O)O)cc2)c(=O)c1N=Nc1ccc(S(=O)(=O)O)cc1; inactive
O=C1OC(c2ccc(O)cc2)(c2ccc(O)cc2)c2ccccc21; inactive
O=C(O)CN(CC(=O)O)CC(=O)O; inactive
CCc1cc(C2=C(C(=O)O)N(c3ccccc3C(F)(F)F)S(=O)(=O)c3ccccc32)cc2c1OCO2; inactive

Request: Which value of outcome has been reported for "Cc1cc(Cc2ccc(N)c(C)c2)ccc1N" in the records?
Response: inactive

Request: Which value of outcome has been reported for CCCCC(CC)COP(=O)(OCC(CC)CCCC)OCC(CC)CCCC (stereo unspecified) in the records?
Response: inactive

Request: Which value of outcome has been reported for "CN(C)CCCN1c2ccccc2Sc2ccc(Cl)cc21" in the records?
Response: inactive

Request: Which value of outcome has been reported for "CC(C)(C)c1ccccc1" in the records?
Response: inactive

Request: Which value of outcome has been reported for "C=CCc1ccc(OC)c(OC)c1" in the records?
Response: inactive

Request: Which value of outcome has been reported for "COC(=O)[C@H]1[C@H]2C[C@@H]3c4[nH]c5cc(OC)ccc5c4CCN3C[C@H]2C[C@@H](OC(=O)c2cc(OC)c(OC)c(OC)c2)[C@@H]1OC" in the records?
Response: inactive
